# Test system: Hepatitis B virus
# assay_procedure: Inhibition of HBV recombinant Cp149 expressed in Escherichia coli BL21 (DE3) assessed as inhibition of capsid assembly at 0.1 uM incubated for 1 hr by immune blotting analysis relative to control
parameter_measured: inhibition (%)

# molecule, parameter_measured, value_observed
rows = [
    ("COc1ncccc1C(=O)NCCNc1cc(Nc2ccc(Cl)cc2)nc([S+](C)[O-])n1 (stereo not given)", "inhibition", 27),
    ("CS(=O)(=O)c1nc(Nc2ccc(F)c(Cl)c2)cc(N2CCNCC2)n1", "inhibition", 47),
    ("CS(=O)(=O)c1nc(Nc2cc(F)c(F)c(F)c2)cc(N2CCNCC2)n1", "inhibition", 39),
    ("COc1ncccc1C(=O)NCCNc1cc(Nc2ccc(N3CCOCC3)cc2)nc(S(C)(=O)=O)n1", "inhibition", 49),
    ("COc1cncc(C(=O)NCCNc2cc(Nc3ccc(N4CCOCC4)cc3)nc([S+](C)[O-])n2)c1 (stereo not given)", "inhibition", 43),
]
